# Test system: K. pneumoniae ATCC 10031
# Test details: MIC, K. pneumoniae ATCC 10031
# Format: cell-based
# Study conditions: Example 111
Measured quantity: MIC K. pneumoniae ATCC 10031

// each compound listed below needs its MIC K. pneumoniae ATCC 10031
1. NCC1OC(OC2C(CO)OC(OC3C(O)C(N)CC(N)C3OC3OC(CNCCCc4ccccc4)C(O)C(O)C3N)C2O)C(N)C(O)C1O (centres unmarked) [Compound 15l]
2. NCC1OC(OC2C(CO)OC(OC3C(O)C(N)CC(N)C3OC3OC(CNCCc4cccc(C(F)(F)F)c4)C(O)C(O)C3N)C2O)C(N)C(O)C1O (centres unmarked) [Compound 15u]
3. NCC1OC(OC2C(CO)OC(OC3C(O)C(N)CC(N)C3OC3OC(CNCCc4ccccc4)C(O)C(O)C3N)C2O)C(N)C(O)C1O (centres unmarked) [Compound 15j]
4. NCC1OC(OC2C(CO)OC(OC3C(O)C(N)CC(N)C3OC3OC(CNCCc4ccc(F)cc4)C(O)C(O)C3N)C2O)C(N)C(O)C1O (centres unmarked) [Compound 15o]
5. NCC1OC(OC2C(CO)OC(OC3C(O)C(N)CC(N)C3OC3OC(CO)C(O)C(O)C3N)C2OCCNCCc2ccccc2)C(N)C(O)C1O (centres unmarked)

Output line:
1: 0.6 to 1.3 µM; 2: 0.6 to 1.3 µM; 3: 0.6 to 1.3 µM; 4: 0.6 to 1.3 µM; 5: 2.5-5^ uM
